MEASURED TARGET: UniProt:Q9NXA8
METHOD SUMMARY: Inhibition of human recombinant N-terminal Strep2-tagged SIRT5 expressed in Escherichia coli BL21 (DE3) using Abz-GVLK(glutaryl)AY(NO2)GV-NH2 as substrate in presence of NAD+ by fluorescence assay
Residues, ends and D or L forms follow the SMILES beside them. *: point of attachment. X3 = O=C(O)[C@H](CC(=O)*)Sc1ccc(Cl)c(Cl)c1; X8 = O=C(O)[C@H](CC(=O)*)Sc1ccccc1; X12 = O=C(O)C(CC(=O)*)SCCc1cnccn1; Bz = O=C(c1ccccc1)*
This listing pairs compounds with measured Ki.

• CC(C)C[C@H](NC(=O)[C@@H](NC(=O)CNC(=O)c1ccccc1)C(C)C)C(=O)N[C@@H](CCCCNC(=O)C[C@H](Sc1ccccc1)C(=O)O)C(=O)N[C@@H](CCC(=O)O)C(=O)N[C@@H](Cc1ccc(O)cc1)C(=O)NCC(=O)N[C@H](C(N)=O)C(C)C (Bz-GVLK(X8)EYGV-NH2) = 135 nM
• CC(C)C[C@H](NC(=O)[C@@H](NC(=O)CNC(=O)c1ccccc1)C(C)C)C(=O)N[C@@H](CCCCNC(=O)CC(SCCc1cnccn1)C(=O)O)C(=O)N[C@@H](CCC(=O)O)C(=O)N[C@@H](Cc1ccc(O)cc1)C(=O)NCC(=O)N[C@H](C(N)=O)C(C)C (stereo partly drawn) (Bz-GVLK(X12)EYGV-NH2) = 3.5 to 11 nM

Now let's try a different one.
Ask | // fetch UniProt:Q9NXA8 Ki for CC(C)C[C@H](NC(=O)[C@@H](NC(=O)CNC(=O)c1ccccc1)C(C)C)C(=O)N[C@@H](CCCCNC(=O)C[C@H](Sc1ccc(Cl)c(Cl)c1)C(=O)O)C(=O)N[C@@H](CCC(=O)O)C(=O)N[C@@H](Cc1ccc(O)cc1)C(=O)NCC(=O)N[C@H](C(N)=O)C(C)C (Bz-GVLK(X3)EYGV-NH2)
Reply | 23 nM

====

MEASURED TARGET: UniProtKB Q9NXA8
METHOD SUMMARY: Inhibition of human recombinant N-terminal Strep2-tagged SIRT5 expressed in Escherichia coli BL21 (DE3) using Abz-GVLK(glutaryl)AY(NO2)GV-NH2 as substrate in presence of NAD+ by fluorescence assay
Residues, ends and D or L forms follow the SMILES beside them. *: point of attachment. X18 = O=C(O)[C@@H](CC(=O)*)Sc1c(Cl)cccc1Cl; X43 = O=C(O)[C@H](CC(=O)*)Sc1ccc(Cl)cc1Cl; X57 = O=C(O)[C@@H](CC(=O)*)Sc1ccc(Cl)cc1; X47 = O=C(O)[C@@H](CC(=O)*)SCc1ccccc1Cl; Bz = O=C(c1ccccc1)*
RESULT TYPE: IC50 (nM)
// note: answer is a bare numeric in nM

* CC(C)C[C@H](NC(=O)[C@@H](NC(=O)CNC(=O)c1ccccc1)C(C)C)C(=O)N[C@@H](CCCCNC(=O)C[C@H](Sc1ccc(Cl)cc1Cl)C(=O)O)C(=O)N[C@@H](CCC(=O)O)C(=O)N[C@@H](Cc1ccc(O)cc1)C(=O)NCC(=O)N[C@H](C(N)=O)C(C)C (Bz-GVLK(X43)EYGV-NH2) | 177
* CC(C)C[C@H](NC(=O)[C@@H](NC(=O)CNC(=O)c1ccccc1)C(C)C)C(=O)N[C@@H](CCCCNC(=O)C[C@@H](SCc1ccccc1Cl)C(=O)O)C(=O)N[C@@H](CCC(=O)O)C(=O)N[C@@H](Cc1ccc(O)cc1)C(=O)NCC(=O)N[C@H](C(N)=O)C(C)C (Bz-GVLK(X47)EYGV-NH2) | 352
* CC(C)C[C@H](NC(=O)[C@@H](NC(=O)CNC(=O)c1ccccc1)C(C)C)C(=O)N[C@@H](CCCCNC(=O)C[C@@H](Sc1ccc(Cl)cc1)C(=O)O)C(=O)N[C@@H](CCC(=O)O)C(=O)N[C@@H](Cc1ccc(O)cc1)C(=O)NCC(=O)N[C@H](C(N)=O)C(C)C (Bz-GVLK(X57)EYGV-NH2) | 1610

Ask | // fetch UniProtKB Q9NXA8 IC50 for CC(C)C[C@H](NC(=O)[C@@H](NC(=O)CNC(=O)c1ccccc1)C(C)C)C(=O)N[C@@H](CCCCNC(=O)C[C@@H](Sc1c(Cl)cccc1Cl)C(=O)O)C(=O)N[C@@H](CCC(=O)O)C(=O)N[C@@H](Cc1ccc(O)cc1)C(=O)NCC(=O)N[C@H](C(N)=O)C(C)C (Bz-GVLK(X18)EYGV-NH2)
Reply | 12500

====

This listing pairs molecules with measured IC50.
MEASURED TARGET: NAD-dependent protein deacylase sirtuin-5, mitochondrial (Homo sapiens)
Sequence (Q9NXA8 whole entry): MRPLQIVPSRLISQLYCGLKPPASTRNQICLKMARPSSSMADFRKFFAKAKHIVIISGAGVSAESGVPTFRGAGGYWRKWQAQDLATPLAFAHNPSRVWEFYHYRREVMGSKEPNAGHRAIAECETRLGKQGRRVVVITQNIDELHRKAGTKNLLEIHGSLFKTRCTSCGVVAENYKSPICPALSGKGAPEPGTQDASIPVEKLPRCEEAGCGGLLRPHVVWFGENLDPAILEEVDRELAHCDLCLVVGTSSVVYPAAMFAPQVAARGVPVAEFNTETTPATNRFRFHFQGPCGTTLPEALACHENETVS
METHOD SUMMARY: Inhibition of human recombinant N-terminal Strep2-tagged SIRT5 expressed in Escherichia coli BL21 (DE3) using Abz-GVLK(glutaryl)AY(NO2)GV-NH2 as substrate in presence of NAD+ by fluorescence assay
Starred links: 1 amine or outer side, 2 acyl side, 3 side chain; linkers in the order of their positions; H or OH if unused. Residues, ends and D or L forms follow the SMILES beside them. *: point of attachment. X2 = O=C(CCCC[C@@H]1SC[C@@H]2NC(=O)N[C@@H]21)NCCCOCCOCCOCCCN*; X65 = O=C(O)[C@H](CC(=O)*)SCc1cccc([N+](=O)[O-])c1; X71 = O=C(O)[C@@H](CC(=O)*)SCc1cccc(C(F)(F)F)c1; X32 = O=C(O)[C@H](CC(=O)*)SCc1ccc(C(F)(F)F)cc1; X56 = Cc1cc(C)c(CS[C@H](CC(=O)*)C(=O)O)c(C)c1; X28 = O=C(O)[C@@H](CC(=O)*)Sc1ccc(Cl)c(Cl)c1; X39 = O=C(O)[C@H](CC(=O)*)Sc1cc(Cl)cc(Cl)c1; X41 = O=C(O)[C@@H](CC(=O)*)Sc1cc(Cl)ccc1Cl; X55 = O=C(O)[C@@H](CC(=O)*)Sc1ccc(Cl)cc1Cl; X1 = O=C(O)[C@H](CC(=O)*)Sc1ccc2ccccc2c1; X54 = O=C(O)[C@H](CC(=O)*)SCCc1ccccc1; X40 = O=C(O)[C@H](CC(=O)*)SCc1ccccc1; X9 = O=C(O)C(CC(=O)*)Sc1ccc2ccccc2c1; Suc = O=C(CCC(=O)[*:2])[*:1]; Bz = O=C(c1ccccc1)*
Record the result as number plus unit.

Consider the worked cases shown below.
* CC(C)C[C@H](NC(=O)[C@@H](NC(=O)CNC(=O)c1ccccc1)C(C)C)C(=O)N[C@@H](CCCCNC(=O)C[C@H](Sc1cc(Cl)cc(Cl)c1)C(=O)O)C(=O)N[C@@H](CCC(=O)O)C(=O)N[C@@H](Cc1ccc(O)cc1)C(=O)NCC(=O)N[C@H](C(N)=O)C(C)C (Bz-GVLK(X39)EYGV-NH2) | 86.1 nM
* CC(C)C[C@H](NC(=O)[C@@H](NC(=O)CNC(=O)c1ccccc1)C(C)C)C(=O)N[C@@H](CCCCNC(=O)C[C@H](SCc1ccccc1)C(=O)O)C(=O)N[C@@H](CCC(=O)O)C(=O)N[C@@H](Cc1ccc(O)cc1)C(=O)NCC(=O)N[C@H](C(N)=O)C(C)C (Bz-GVLK(X40)EYGV-NH2) | 336 nM
* CC(C)C[C@H](NC(=O)[C@@H](NC(=O)CNC(=O)c1ccccc1)C(C)C)C(=O)N[C@@H](CCCCNC(=O)C[C@@H](Sc1ccc(Cl)cc1Cl)C(=O)O)C(=O)N[C@@H](CCC(=O)O)C(=O)N[C@@H](Cc1ccc(O)cc1)C(=O)NCC(=O)N[C@H](C(N)=O)C(C)C (Bz-GVLK(X55)EYGV-NH2) | 2010 nM
* O=C1c2c(O)cccc2Cc2cccc(O)c21 | 453000 nM
* CC(C)C[C@H](NC(=O)[C@@H](NC(=O)CNC(=O)c1ccccc1)C(C)C)C(=O)N[C@@H](CCCCNC(=O)C[C@H](SCc1cccc([N+](=O)[O-])c1)C(=O)O)C(=O)N[C@@H](CCC(=O)O)C(=O)N[C@@H](Cc1ccc(O)cc1)C(=O)NCC(=O)N[C@H](C(N)=O)C(C)C (Bz-GVLK(X65)EYGV-NH2) | 2710 nM
* CC(C)C[C@H](NC(=O)[C@@H](NC(=O)CNC(=O)c1ccccc1)C(C)C)C(=O)N[C@@H](CCCCNC(=O)C[C@@H](SCc1cccc(C(F)(F)F)c1)C(=O)O)C(=O)N[C@@H](CCC(=O)O)C(=O)N[C@@H](Cc1ccc(O)cc1)C(=O)NCC(=O)N[C@H](C(N)=O)C(C)C (Bz-GVLK(X71)EYGV-NH2) | 1150 nM

Ask | // fetch NAD-dependent protein deacylase sirtuin-5, mitochondrial (Homo sapiens) IC50 for CC(C)C[C@H](NC(=O)[C@@H](NC(=O)CNC(=O)CCC(=O)NCCCOCCOCCOCCCNC(=O)CCCC[C@@H]1SC[C@@H]2NC(=O)N[C@@H]21)C(C)C)C(=O)N[C@@H](CCCCNC(=O)CC(Sc1ccc2ccccc2c1)C(=O)O)C(=O)N[C@@H](CCC(=O)O)C(=O)N[C@@H](Cc1ccc(O)cc1)C(=O)NCC(=O)N[C@H](C(N)=O)C(C)C (stereo partly drawn) ({X2-Suc}-GVLK(X9)EYGV-NH2)
Reply | 91.1 nM

Ask | // fetch NAD-dependent protein deacylase sirtuin-5, mitochondrial (Homo sapiens) IC50 for Cc1cc(C)c(CS[C@H](CC(=O)NCCCC[C@H](NC(=O)[C@H](CC(C)C)NC(=O)[C@@H](NC(=O)CNC(=O)c2ccccc2)C(C)C)C(=O)N[C@@H](CCC(=O)O)C(=O)N[C@@H](Cc2ccc(O)cc2)C(=O)NCC(=O)N[C@H](C(N)=O)C(C)C)C(=O)O)c(C)c1 (Bz-GVLK(X56)EYGV-NH2)
Reply | 631 nM

Ask | // fetch NAD-dependent protein deacylase sirtuin-5, mitochondrial (Homo sapiens) IC50 for CC(C)C[C@H](NC(=O)[C@@H](NC(=O)CNC(=O)CCC(=O)NCCCOCCOCCOCCCNC(=O)CCCC[C@@H]1SC[C@@H]2NC(=O)N[C@@H]21)C(C)C)C(=O)N[C@@H](CCCCNC(=O)C[C@H](Sc1ccc2ccccc2c1)C(=O)O)C(=O)N[C@@H](CCC(=O)O)C(=O)N[C@@H](Cc1ccc(O)cc1)C(=O)NCC(=O)N[C@H](C(N)=O)C(C)C ({X2-Suc}-GVLK(X1)EYGV-NH2)
Reply | 19.1 nM

Ask | // fetch NAD-dependent protein deacylase sirtuin-5, mitochondrial (Homo sapiens) IC50 for CC(C)C[C@H](NC(=O)[C@@H](NC(=O)CNC(=O)c1ccccc1)C(C)C)C(=O)N[C@@H](CCCCNC(=O)C[C@@H](Sc1cc(Cl)ccc1Cl)C(=O)O)C(=O)N[C@@H](CCC(=O)O)C(=O)N[C@@H](Cc1ccc(O)cc1)C(=O)NCC(=O)N[C@H](C(N)=O)C(C)C (Bz-GVLK(X41)EYGV-NH2)
Reply | 1980 nM

Ask | // fetch NAD-dependent protein deacylase sirtuin-5, mitochondrial (Homo sapiens) IC50 for CC(C)C[C@H](NC(=O)[C@@H](NC(=O)CNC(=O)c1ccccc1)C(C)C)C(=O)N[C@@H](CCCCNC(=O)C[C@H](SCCc1ccccc1)C(=O)O)C(=O)N[C@@H](CCC(=O)O)C(=O)N[C@@H](Cc1ccc(O)cc1)C(=O)NCC(=O)N[C@H](C(N)=O)C(C)C (Bz-GVLK(X54)EYGV-NH2)
Reply | 2740 nM

Ask | // fetch NAD-dependent protein deacylase sirtuin-5, mitochondrial (Homo sapiens) IC50 for CC(C)C[C@H](NC(=O)[C@@H](NC(=O)CNC(=O)c1ccccc1)C(C)C)C(=O)N[C@@H](CCCCNC(=O)C[C@@H](Sc1ccc(Cl)c(Cl)c1)C(=O)O)C(=O)N[C@@H](CCC(=O)O)C(=O)N[C@@H](Cc1ccc(O)cc1)C(=O)NCC(=O)N[C@H](C(N)=O)C(C)C (Bz-GVLK(X28)EYGV-NH2)
Reply | 1610 nM

Ask | // fetch NAD-dependent protein deacylase sirtuin-5, mitochondrial (Homo sapiens) IC50 for CC(C)C[C@H](NC(=O)[C@@H](NC(=O)CNC(=O)c1ccccc1)C(C)C)C(=O)N[C@@H](CCCCNC(=O)C[C@H](SCc1ccc(C(F)(F)F)cc1)C(=O)O)C(=O)N[C@@H](CCC(=O)O)C(=O)N[C@@H](Cc1ccc(O)cc1)C(=O)NCC(=O)N[C@H](C(N)=O)C(C)C (Bz-GVLK(X32)EYGV-NH2)
Reply | 803 nM

Source listed as ChEMBL document CHEMBL4033793.
